Provenance of the data: patent US10633394B2

- Tested on: MDA-MB-468
- MEASUREMENT_NOTES: Cell growth inhibition assay (CellTiter-Glo), breast cancer cell line MDA-MB-468
- Format: cell-based
- CONDITION: Homo sapiens; MDA-MB-468 cells, 96 hours
Reported IC50 maps to class as: bucket A (below 0.003 µM), bucket B (0.003 µM to below 0.009 µM), bucket C (0.009 µM or more)

Answered cases to consult:
COMPOUND: Cc1cccc(Oc2cc(NC(=O)c3cc4cc5c(cc4s3)OCCC5S(C)(=O)=O)cc(Cl)n2)c1 (centres unmarked)
ASSIGNED_CLASS: bucket C
//
COMPOUND: C[C@]1(S(C)(=O)=O)CCOc2cc3sc(C(=O)Nc4cc(Cl)nc(Oc5ccc(Cl)cc5)c4)cc3cc21
ASSIGNED_CLASS: bucket A
//
COMPOUND: CS(=O)(=O)[C@@H]1CCOc2cc3sc(C(=O)Nc4cc(Cl)nc(Oc5ccc(Cl)cc5)c4)cc3cc21
ASSIGNED_CLASS: bucket C

Which bin should I file [N-]=[N+]=NC1CCOc2cc3sc(C(=O)Nc4cc(Cl)nc(Oc5ccc(Cl)cc5)c4)cc3cc21 (centres unmarked) under?
bucket C

Which bin should I file CS(=O)(=O)C1COCc2cc3sc(C(=O)Nc4cc(Cl)nc(Oc5ccc(Cl)cc5)c4)cc3cc21 (centres unmarked) under?
bucket A

Which bin should I file CS(=O)(=O)C1CCOc2cc3sc(C(=O)Nc4cc(Cl)nc(Oc5cc(Cl)cc(Cl)c5)c4)cc3cc21 (centres unmarked) under?
bucket B

Which bin should I file CN1CCN(S(C)(=O)=O)c2cc3cc(C(=O)Nc4cc(Cl)nc(Oc5ccc(Cl)cc5)c4)sc3cc21 under?
bucket B

Which bin should I file N#CC1CCOc2cc3sc(C(=O)Nc4cc(Cl)nc(Oc5ccc(Cl)cc5)c4)cc3cc21 (centres unmarked) under?
bucket C

Which bin should I file CS(=O)(=O)C1CCOc2cc3sc(C(=O)Nc4cc(Cl)nc(Oc5ccc(C(F)(F)F)cc5)c4)cc3cc21 (centres unmarked) under?
bucket A

Which bin should I file COc1cc(Cl)cc(Oc2cc(NC(=O)c3cc4cc5c(cc4s3)OCC[C@@H]5S(C)(=O)=O)cc(Cl)n2)c1 under?
bucket B

Which bin should I file C[C@@]1(S(C)(=O)=O)CCOc2cc3sc(C(=O)Nc4cc(Cl)nc(Oc5ccc(Cl)cc5)c4)cc3cc21 under?
bucket C

Which bin should I file CS(=O)(=O)C1CCOc2cc3sc(C(=O)Nc4cc(Cl)nc(Oc5cccc(OC(F)(F)F)c5)c4)cc3cc21 (centres unmarked) under?
bucket A

Which bin should I file CS(=O)(=O)C1CCOc2cc3sc(C(=O)Nc4cc(Cl)nc(Oc5cccc(C(F)(F)F)c5)c4)cc3cc21 (centres unmarked) under?
bucket B

Which bin should I file CS(=O)(=O)C1CCOc2cc3sc(C(=O)Nc4cc(Cl)nc(Oc5ccc(F)c(Cl)c5)c4)cc3cc21 (centres unmarked) under?
bucket A

Which bin should I file CS(=O)(=O)C1(F)CCOc2cc3sc(C(=O)Nc4cc(Cl)nc(Oc5ccc(Cl)cc5)c4)cc3cc21 (centres unmarked) under?
bucket B

Which bin should I file COc1ccc(Oc2cc(NC(=O)c3cc4cc5c(cc4s3)OCCC5S(C)(=O)=O)cc(Cl)n2)cc1 (centres unmarked) under?
bucket C

Which bin should I file CS(=O)(=O)C1CCCc2cc3sc(C(=O)Nc4cc(Cl)nc(Oc5ccc(Cl)cc5)c4)cc3cc21 (centres unmarked) under?
bucket A

Which bin should I file CS(=O)(=O)C1CCOc2cc3sc(C(=O)Nc4cc(Cl)nc(Oc5ccccc5OC(F)(F)F)c4)cc3cc21 (centres unmarked) under?
bucket B

Which bin should I file CS(=O)(=O)C1CCOc2cc3sc(C(=O)Nc4cc(Cl)nc(Oc5ccc(OC(F)(F)F)cc5)c4)cc3cc21 (centres unmarked) under?
bucket A

Which bin should I file O=C(Nc1cc(Cl)nc(Oc2ccc(Cl)cc2)c1)c1cc2cc3c(cc2s1)OCCC3n1cccn1 (centres unmarked) under?
bucket C

Which bin should I file CS(=O)(=O)C1CCOc2cc3sc(C(=O)Nc4cc(Cl)nc(Oc5ccc(Cl)cc5F)c4)cc3cc21 (centres unmarked) under?
bucket A

Which bin should I file CC1(S(C)(=O)=O)CCOc2cc3sc(C(=O)Nc4cc(Cl)nc(Oc5ccc(Cl)cc5)c4)cc3cc21 (centres unmarked) under?
bucket B

Which bin should I file CS(=O)(=O)[C@H]1CCOc2cc3sc(C(=O)Nc4cc(Cl)nc(Oc5ccc(Cl)cc5)c4)cc3cc21 under?
bucket A
